system: K562; assay: Antiproliferative activity against human K562 cells after 72 hrs by MTT assay; assay type: functional, cell-based; conditions: K562, 72 h
pIC50: −log10 of the molar value.
Measurement type: pIC50

Sample records with pIC50:
| Compound | Test system | pIC50 |
| --- | --- | --- |
| C=C(CC[C@@H](C(=O)O)[C@H]1[C@H](O)C[C@@]2(C)[C@]34C=C[C@@]5(OO3)C(C)(C)[C@@H](O)CC[C@]5(C)C4=CC[C@]12C)C(C)C | K562 | < 4.40 |
| C=C(CC[C@@H](C(=O)O)[C@H]1[C@H](O)C[C@@]2(C)C3=CCC4[C@](C)(CC[C@H](O)[C@]4(C)CO)C3=CC[C@]12C)C(C)C (stereo partly drawn) | K562 | < 4.40 |

Query: Reported pIC50, compound `C=C(C)C(=O)CC[C@@H](C(=O)O)[C@H]1[C@H](O)C[C@@]2(C)C3=C(CC[C@]12C)[C@@]1(C)CC[C@H](O)C(C)(C)[C@@H]1CC3` : ____
Reply: < 4.40

----------
tested on: K562; assay: Antiproliferative activity against human K562 cells after 72 hrs by MTT assay; format: functional, cell-based; settings: K562, 72 h
Measurement type: pIC50
Scale explanation: pIC50 corresponds to minus log10 of a concentration expressed in moles per litre.

| Molecule | Test value |
| --- | --- |
| C=C(CC[C@@H](C(=O)O)[C@H]1[C@H](O)C[C@@]2(C)C3=CC[C@H]4C(C)(C)C(=O)CC[C@]4(C)C3=CC[C@]12C)C(C)C [POLYPORENIC ACID B] | 4.58 |

Turning now to a further record.
Query: Entry CC(C)=CCC[C@@H](C(=O)O)[C@H]1CC[C@@]2(C)C3=CC[C@H]4C(C)(C)[C@@H](O)CC[C@]4(C)C3=CC[C@]12C [DEHYDROTRAMETENOLIC ACID] has what pIC50?
Reply: 4.83

----------
Here the recorded IC50 is given for each entry.
system: K562; test: Antiproliferative activity against human K562 cells after 72 hrs by MTT assay; assay type: functional, cell-based; conditions: K562, 72 h

| Molecule | IC50 |
| --- | --- |
| CC(C)=CCC[C@@H](C(=O)O)[C@H]1[C@H](O)C[C@@]2(C)C3=CC[C@H]4C(C)(C)[C@@H](O)CC[C@]4(C)C3=CC[C@]12C | > 40 µM |
| C=C(CC[C@@H](C(=O)O)[C@H]1[C@H](O)C[C@@]2(C)[C@]34C=C[C@@]5(OO3)C(C)(C)[C@@H](OC(=O)CO)CC[C@]5(C)C4=CC[C@]12C)C(C)C | > 40 µM |

// below: IC50 requested for another molecule
Query: Need IC50, item C=C(CC[C@@H](C(=O)O)[C@H]1[C@H](O)C[C@@]2(C)C3=CC[C@H]4C(C)(C)[C@@H](O)CC[C@]4(C)C3=CC[C@]12C)C(C)C [DEHYDROTUMULOSIC ACID]
Reply: > 40 µM

Values from ChEMBL document CHEMBL3994573
